The origin of these recorded values is ChEMBL document CHEMBL1201862.

Below is a list of entries, each paired with its recorded GI50 value.
- Test system: HCT-116
- procedure details: NCI tumour cell line growth inhibition, 48 h
Activity calls are given as the source filed them. No stated cut-off is given here; in the data, active = GI50 up to about 1.1 µM and inactive = higher.

Please review the following examples before continuing.
COc1c(C(=O)c2ccc([N+](=O)[O-])cc2)cc(C(C)(C)C)cc1C(C)(C)C; 18.8 µM (inactive)
C(=N\Nc1ccccc1)/c1nc2ccccc2nc1/C=N/Nc1ccccc1; 12.7 µM (inactive)
N#Cc1c(-c2ccc([N+](=O)[O-])cc2)cc(-c2ccc(Nc3ccnc4cc(Cl)ccc34)cc2)[nH]c1=O; > 100 µM (inactive)
COc1ccc(Nc2nc3c(N)cc(C(F)(F)F)cc3nc2-c2ccccc2)cc1; > 100 µM (inactive)
N#CC(C#N)=CNC(=S)Nc1ccc(S(=O)(=O)Nc2nccs2)cc1; > 100 µM (inactive)

**Q:** Fill in: GI50 of CCOc1ccc(NC(=O)CC2C(=O)Nc3ccccc3[S+]2[O-])cc1 (stereo unspecified) is ___
**A:** > 85.3 µM (inactive)

**Q:** Try this compound too: O=C(O)c1cccc(Nc2c(C(=O)O)cccc2[N+](=O)[O-])c1
**A:** > 100 µM (inactive)

**Q:** Try this compound too: S=c1[nH]n2c(CCCCCCCCc3nnc4sc(=S)[nH]n34)nnc2s1
**A:** > 100 µM (inactive)

**Q:** Try this compound too: CSc1ccc(/C=C2\N=C(c3ccccc3)N(c3nc4ccc(Sc5ccccc5)cc4[nH]3)C2=O)cc1
**A:** 14.7 µM (inactive)

**Q:** Try this compound too: CCN(CC)CCOc1ccccc1/C=C/c1noc2ccccc12
**A:** 6.22 µM (inactive)

**Q:** Try this compound too: COc1cc2ccn3c4cc(OC)c(OC)cc4cc3c2cc1OC
**A:** 32.8 µM (inactive)

**Q:** Try this compound too: O=C1c2ccccc2CC12CCC1(CC2)OCCO1
**A:** > 100 µM (inactive)

**Q:** Try this compound too: CC1CC[C@]2(C(=O)O)CCC3(C)C(=C2[C@H]1C)C=CC1[C@@]2(C)CC[C@H](O)C(C)(C)C2CC[C@]13C (stereo partly specified)
**A:** 17.6 µM (inactive)

**Q:** Try this compound too: Cc1ccc2c3c1O[C@H]1c4[nH]c5ccccc5c4C[C@@]4(O)[C@@H](C2)N(CC2CC2)CC[C@]314
**A:** 14.5 µM (inactive)

**Q:** Try this compound too: CCOC(=O)C(C)c1nc2cc3cccnc3c(Cl)c2[nH]c1=O (stereo unspecified)
**A:** > 100 µM (inactive)

**Q:** Try this compound too: CN(C)c1ccc2c(c1)oc(=O)c1ccccc12
**A:** 12.3 µM (inactive)

**Q:** Try this compound too: CC1=CC[C@@]2(CO)[C@@H]([C@@H]1C)[C@H]1CC[C@@H]3[C@@]4(C)CC[C@H](O)C(C)(C)[C@@H]4CC[C@@]3(C)[C@]1(C)C[C@@H]2O
**A:** 21.5 µM (inactive)

**Q:** Try this compound too: CC(C)CC(O)P(=O)(O)O.NC1CCCCC1 (stereo unspecified)
**A:** > 100 µM (inactive)

**Q:** Try this compound too: N#CC1CC2(C(=O)C1=O)c1ccccc1-c1ccccc12 (stereo unspecified)
**A:** > 100 µM (inactive)

**Q:** Try this compound too: Cc1c(-c2ccccc2)nn2cc(-c3ccccc3)nnc12
**A:** 20.7 µM (inactive)

**Q:** Try this compound too: CC(=O)N1C(Nc2nccs2)CCN1c1ccccc1 (stereo unspecified)
**A:** > 10 µM (inactive)

====

Below is a list of entries, each paired with its recorded GI50 value.
- System: UACC-62
- procedure details: NCI tumour cell line growth inhibition, 48 h
The source made the active and inactive calls. No stated cut-off is given here; in the data, active = GI50 up to about 1.1 µM and inactive = higher.

**Q:** Fill in: GI50 of C[N+](C)(C)c1ncnc2c1ncn2C1CCCO1 (stereo unspecified) is ___
**A:** > 100 µM (inactive)

**Q:** Try this compound too: Clc1ccc(C2ON=C(c3ccccc3)N2C23CC4CC(CC(C4)C2)C3)c(Cl)c1 (stereo unspecified)
**A:** > 10 µM (inactive)

**Q:** Try this compound too: COc1ccc(-c2nc3c(nc2-c2ccc(OC)cc2)N(C)S(=O)(=O)N=C3N)cc1
**A:** 22.8 µM (inactive)

**Q:** Try this compound too: O=C(N/N=C/c1ccccc1)c1c(-c2cccnc2)cnc2ccccc12
**A:** 79.8 µM (inactive)

====

- Test system: RPMI-8226
- procedure details: NCI tumour cell line growth inhibition, 48 h
The source made the active and inactive calls. Rule as the data show it: active = GI50 up to about 1.1 µM and inactive = higher. Starred links: 1 amine or outer side, 2 acyl side, 3 side chain; linkers in the order of their positions; H or OH if unused. Positions of bridges follow the written chain, without caps; N, C: chain ends. Non-standard residues stand in square brackets, D forms with d. Residues, ends and D or L forms follow the SMILES beside them. *: point of attachment. X40 = CC[C@H](C)[C@@H](N[*:1])[C@@H](O)CC(=O)[*:2]; NMeY = CN[C@@H](Cc1ccc(O)cc1)C(=O)O; dNMeL = CN[C@H](CC(C)C)C(=O)O; Hiv = CC(C)[C@H](O)C(=O)O; Pyruvoyl = CC(=O)C(=O)*
Could you please pick one outcome from this set? YES = active, NO = inactive

COC(=O)[C@]1(c2cc3ccccc3[nH]2)CC2CNC1C1OC(C)(C)OC21 (some centres undefined); NO
CC[C@H](C)[C@H]1NC(=O)[C@@H](NC(=O)[C@@H](CC(C)C)N(C)C(=O)[C@@H]2CCCN2C(=O)C(C)=O)[C@@H](C)OC(=O)[C@H](Cc2ccc(OC)cc2)N(C)C(=O)[C@@H]2CCCN2C(=O)[C@H](CC(C)C)NC(=O)[C@H](C(C)C)OC(=O)C[C@@H]1O (Pyruvoyl-P[dNMeL]T[X40][Hiv]LP[NMeY](Me); ester 3-C); YES

**Q:** Test call for this compound, please: CCCCCCCCCCCCNC(=O)NCC(OCC)OCC
**A:** NO

**Q:** Try this compound too: COc1cc2c(c(OC)c1OC)-c1ccc(SC)cc1[C@H](OC(=O)c1ccccc1)CC2
**A:** YES

**Q:** Try this compound too: Clc1cc(Cl)nc(Nc2ccc3c(c2)CCC3)n1
**A:** NO

**Q:** Try this compound too: O=c1[nH]cc(F)c(=O)n1C1OC(CO)C(O)C1O (centres undefined)
**A:** NO

====

- Test system: OVCAR-4
- procedure details: NCI tumour cell line growth inhibition, 48 h
The source made the active and inactive calls. Rule as the data show it: active = GI50 up to about 1.1 µM and inactive = higher.
Below is a list of entries, each paired with its recorded GI50 value.

Please review the following examples before continuing.
COc1cc(OC)c(C2CC=Cc3c(OC)cc(OC)c(OC)c32)cc1OC (stereo not given); > 100 µM (inactive)
O=C1/C(=C/C=C/c2ccccc2)N=C(c2ccccc2)N1c1ccc(S(=O)(=O)Nc2nccs2)cc1; 30 µM (inactive)
N#CCC1(c2ccc(Cl)cc2)NC(=O)c2ccccc21 (stereo not given); > 100 µM (inactive)
CCCC(=O)OCC1OC(n2cc(F)c(=O)[nH]c2=O)C(F)C1OC(=O)CCC (stereo not given); 5.61 µM (inactive)

**Q:** Fill in: GI50 of Cc1cc2c(cc1Cl)Sc1nnc(Nc3ccccc3)n1S2(=O)=O is ___
**A:** 6.89 µM (inactive)

====

Below is a list of entries, each paired with its recorded GI50 value.
- System: ACHN
- procedure details: NCI tumour cell line growth inhibition, 48 h
The source made the active and inactive calls. No stated cut-off is given here; in the data, active = GI50 up to about 1.1 µM and inactive = higher. Numbered stars: 1 amine (or outer) side, 2 acyl side, 3 side chain; on linkers, the order of the positions; unused ones are H or OH. Square brackets hold non-standard residues; d marks the D form. Peptide text beside a SMILES is read from it. * marks the point of attachment. X30 = CC(=O)N(C)SCC(N[*:1])C(=O)[*:2]; Cbz = O=C(OCc1ccccc1)*; Bn = c1ccc(C*)cc1

Please review the following examples before continuing.
O=C(NC12CC3CC(CC(F)(C3)C1)C2)c1ccccc1; > 100 µM (inactive)
N#Cc1c(Cl)cccc1Oc1ccc(S(=O)(=O)/N=C(\NN)Nc2ccc(Cl)cc2)cc1; 31.9 µM (inactive)
COc1cccc(CCn2c(N)c(-c3cc(Cl)cc(Cl)c3)c3ccc([N+](=O)[O-])cc3c2=O)c1; 3.26 µM (inactive)
CCCc1cn2c(/C=N/N=C(N)N)c(-c3c(OC)ccc(OC)c3[N+](=O)[O-])nc2s1; 18 µM (inactive)
CN(C(=O)C12C3C4C5C3C1(C(=O)O)C5C42)C(C)(C)C (stereo not drawn); > 100 µM (inactive)
Clc1nc(Cl)c(-c2ccccc2)c(Cl)n1; 0.29 µM (active)

**Q:** Fill in: GI50 of CC(=O)N(C)SCC(NC(=O)C(Cc1ccccc1)NC(=O)OCc1ccccc1)C(=O)NC(Cc1ccccc1)C(=O)NC(Cc1c[nH]c2ccccc12)C(=O)NC(CCCCNC(=O)OCc1ccccc1)C(=O)NC(C(=O)NC(CSN(C)C(C)=O)C(=O)NC(C(N)=O)C(C)OCc1ccccc1)C(C)OCc1ccccc1 (stereo not drawn) (Cbz-F[X30]FWK(Cbz)T(Bn)[X30]T(Bn)-NH2; configuration not given here) is ___
**A:** > 100 µM (inactive)

**Q:** Try this molecule too: O=C(OCCO)C1CC2CC1C1(C2)OCCO1 (stereo not drawn)
**A:** > 100 µM (inactive)
